biological target: Torsin-1A (Homo sapiens) (UniProt O14656); test: torsin A binders from cell lysate, primary screen, small-molecule microarray, wild-type, 635/667 nm (AID 1149); settings: COS7 hTOR1A-WT lysate, 635 nm fluorescence, higher = more signal
Sequence (O14656 whole entry, looked up): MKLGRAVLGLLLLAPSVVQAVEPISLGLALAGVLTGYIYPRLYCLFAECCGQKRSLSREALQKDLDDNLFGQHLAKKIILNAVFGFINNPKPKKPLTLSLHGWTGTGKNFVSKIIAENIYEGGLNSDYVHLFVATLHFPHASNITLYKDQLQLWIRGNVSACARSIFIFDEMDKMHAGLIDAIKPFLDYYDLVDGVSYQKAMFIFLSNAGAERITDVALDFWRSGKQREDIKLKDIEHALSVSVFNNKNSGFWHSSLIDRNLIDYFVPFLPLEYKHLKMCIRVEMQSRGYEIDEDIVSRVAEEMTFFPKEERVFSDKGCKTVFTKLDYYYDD
Endpoint label: composite z-score
Reply with the value as a number alone.

C=CCNC(=O)[C@@H]1[C@H]2C(=O)O[C@H](c3ccccc3)[C@H](c3ccccc3)N2[C@H](c2ccc(OCCO)cc2)[C@@]12C(=O)N(C(=O)OCCOC)c1ccc(C#CC3=CCCCC3)cc12 = 0.694

q: Fill blank: measured composite z-score of the compound CC(=O)NCCCC[C@@H]1NC(=O)[C@@H]2C[C@H](C(=O)O)[C@H](c3ccc(O)cc3)N2C1=O is ____.
a: -2.46

q: Further, for C=CC[C@@]12N=C(c3ccc(OCCCO)cc3)O[C@@H]1c1ccccc1N(CCS(=O)(=O)c1ccccc1)C2=O ?
a: 0.558

q: Further, for COCC(=C=CC[C@H](O)c1ccc(OCCO)cc1)C[C@H](O)COCc1ccccc1 ?
a: 0.908

q: Further, for CN(C)CCCNC(=O)[C@@]1(c2ccc([N+](=O)[O-])cc2)CC(=O)N(CC23CC4CC(CC(C4)C2)C3)[C@@H]1c1ccc(CO)cc1 ?
a: -0.183

q: Further, for CCOC(=O)[C@H]1C/C=C/C[C@H](C(=O)OCC)C(=O)O[C@H]2[C@@H](OC)O[C@H](CO)[C@@H](OC(=O)Nc3ccc(OC)cc3)[C@@H]2OC1=O ?
a: 0.494

q: Further, for C=CCOC(=O)[C@@H]1[C@H]2C(=O)O[C@H](c3ccccc3)[C@H](c3ccccc3)N2[C@H](c2ccc(OCCOC(=O)[C@H]3C[C@H]4C(=O)N[C@@H](CC(C)C)C(=O)N4[C@H]3c3ccc(O)cc3)cc2)[C@@]12C(=O)Nc1ccc(I)cc12 ?
a: 1.33

q: Further, for COc1ccccc1CN1C(=O)c2ccccc2[C@](Cc2ccccc2I)(C(=O)NC(C)C)[C@@H]1c1ccc(CO)cc1 ?
a: 0.667

* * *

assay: basal 3T3-L1 adipocyte mitochondrial potential changes, profiling panel, cell-based, JC-1 fluorescence, 3T3-L1 adipocytes, 24 h, 100 nL compound (AID 1168); details: JC-1 mitochondrial fluorescence, higher = more signal, called active from +8 up or from −8 down; note: test concentration not given here
Binary call on z-score: True from 0.4 upward, False beneath that.

These recorded examples may help you get a feel for the data.
C=C(C(=O)CC[C@H](OC(=O)c1cccnc1)c1cccc(OCCO)c1)C(C)C = True
CCCCC(CC)C(O)C1C=CC2C(=O)N(c3ccccc3)C(=O)C2N1Nc1ccc([N+](=O)[O-])cc1 (centres undefined) = False
COCCCNC(=O)[C@@H]1c2ccccc2C(=O)N(Cc2ccccc2C(F)(F)F)[C@H]1c1ccc(CO)cc1 = False

Now let's try a different one.
q: Entry NC(=O)NCC#Cc1ccc2c(c1)[C@]1(C(=O)N2)[C@H](c2ccc(O)cc2)N2[C@H](c3ccccc3)[C@H](c3ccccc3)OC(=O)[C@H]2[C@@H]1C(=O)Nc1nc2ccccc2s1 : is its z-score no less than 0.4?
a: False

* * *

Item-by-item account of composite z-score
system: PRMT1 (protein arginine N-methyltransferase 1); assay: PRMT1 binders on small-molecule microarrays, primary screen, biochemical, small-molecule microarray, 635 nm fluorescence (AID 1088); conditions: small-molecule microarray binding, higher = more signal;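 note: binding of Prmt1 protein to compounds spotted on small-molecule microarray slides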
Reply with the value as a number alone.

Example entries and their recorded answers appear below.
C=C(C(=O)CC[C@H](OC(=O)c1cccnc1)c1ccc(CO)o1)C(C)C = 1.51
NCCCCCNC(=O)[C@@H]1C[C@@H]2C(=O)N[C@@H](CCCCN)C(=O)N2[C@@H]1c1cccc(OCCO)c1 = 0.61
CCOC(=O)C[C@H]1[C@H](OC(=O)c2ccccc2-c2ccccc2)[C@@H](NC(=O)c2ccc3ccccc3n2)c2cc(OCCCO)ccc2N1C(=O)c1ccc2ccccc2n1 = 0.215
C=CCN1C(=O)[C@]2(CC=C)N=C(c3ccc(OCCCO)cc3)O[C@@H]2c2ccccc21 = 1.45
COCCOC(=O)N1C(=O)[C@@]2(c3cc(C#Cc4ccc(OC)cc4)ccc31)[C@H](C(=O)N1CCCCCCC1)[C@H]1C(=O)O[C@H](c3ccccc3)[C@H](c3ccccc3)N1[C@@H]2c1ccc(O)cc1 = 1.47

q: Fill blank: measured composite z-score of the compound CC(C)(C)OC(=O)CC[C@]1(C(=O)NCCN2CCOCC2)N=C(c2ccc(OCCCO)cc2)O[C@H]1c1ccccc1N=[N+]=[N-] is ____.
a: 1.49

q: Further, for O=C1O[C@@H](c2ccccc2)[C@@H](c2ccccc2)N2[C@@H](c3ccccc3OCCO)[C@]3(C(=O)Nc4ccc(C#CCCO)cc43)[C@@H](C(=O)N3CCN(c4ncccn4)CC3)[C@H]12 ?
a: 1.55
